- Test system: HT29 colon
- experimental.details: NCI-60 one-dose screen, 48 h
- measurement.context: 10 µM unless noted
The panel holds about 83,000 compounds, 20% with a hit somewhere; the sample as a whole holds those more often. Active and inactive are the calls of the source. The calls were made as follows: active = growth percent below 10; inactive = the rest.
Use one of these outcomes when replying: active, inactive

What outcome does the record of this test show for `C=C(C)c1ccc(/C=N/NC(N)=S)cc1` ? inactive

Next record, please: `Cn1c(=O)c2c3c(oc2c2ccccc21)C(=O)c1ccccc1C3=O` inactive

Query COc1ccc(C2=CC(c3ccc(OC)cc3Br)N3C=CSC3=N2)cc1 (centres undefined) next active

Please answer likewise for `Cc1cc(C#Cc2ccccc2)ccc1-n1c(/C=C/c2ccc(F)cc2)nc2ccccc2c1=O` inactive

Further, for `COc1ccc([C@@H]2[C@@H](Cl)C(=O)N2c2cc(OC)c(OC)c(OC)c2)cc1C` ? inactive

Please give the result for `COc1ccc(NC(=O)c2ccc(C(F)(F)F)nc2Nc2ccc(Cl)cc2C)cc1Cl` too. inactive

Likewise for CNCc1ccccc1CN(CC(=O)Nc1ccc2c(c1)CC1(C2)C(=O)Nc2ncccc21)C(=O)C(C)(C)C (centres undefined) ? inactive

Same thing, different molecule: `COc1cc2nccc(Oc3ccc(NC(=O)C4(C(=O)Nc5c(F)cc(F)cc5F)CC4)cc3)c2cc1Oc1ccc(N)cn1` inactive

What do we get for `Cc1cc(C)c([O-])c(CN(C)CCN(C)Cc2cc(C)cc(C)c2[O-])c1.O=C([O-])c1cccc(C(=O)[O-])n1.[Ti+4]` ? active
